Just for reference, patent US20250074980A1 is where these values come from.

Target: T1, His-tagged CEACAM1 (human, UniProt P13688 35-428)
T1 construct: 45 kDa SPR analyte; also called CEACAM1-HIS; CEACAM1 analyte
T1 sequence: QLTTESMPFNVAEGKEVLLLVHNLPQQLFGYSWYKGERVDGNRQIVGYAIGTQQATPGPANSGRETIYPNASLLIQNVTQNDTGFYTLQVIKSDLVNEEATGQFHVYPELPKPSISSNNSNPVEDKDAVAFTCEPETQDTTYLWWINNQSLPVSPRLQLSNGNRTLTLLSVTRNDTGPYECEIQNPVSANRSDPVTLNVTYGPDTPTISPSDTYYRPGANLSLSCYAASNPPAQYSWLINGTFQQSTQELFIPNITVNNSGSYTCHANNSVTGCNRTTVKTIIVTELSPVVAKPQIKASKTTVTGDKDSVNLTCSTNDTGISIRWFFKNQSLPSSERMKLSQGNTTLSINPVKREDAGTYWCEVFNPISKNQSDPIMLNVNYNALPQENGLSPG
Test: SPR single-cycle, supernatant IgG captured

Binder	relative KD to parent
8H3_9E5/CP08E05 (antibody, IgG4, V domains shown, IgG4 (S241P), kappa) VH: EVQLLESGGGLVQPGGSLRLSCAASGFIFSSHGMSWVRQAPGKGLEWVATISSGGTYTYYPDSVKGRFTISRDNSKNTLYLQMNSLKAEDTAMYYCARHGFDYFPYWFAHWGQGTLVTVSS VL: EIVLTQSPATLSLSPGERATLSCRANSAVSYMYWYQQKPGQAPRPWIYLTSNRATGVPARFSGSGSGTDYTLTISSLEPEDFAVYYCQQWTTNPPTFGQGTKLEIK	1.8
8H3_9C2 (CDR1)/CP08E05 (antibody, IgG4, V domains shown, IgG4 (S241P), kappa) VH: EVQLLESGGGLVQPGGSLRLSCAASEFTFSDHAMSWVRQAPGKGLEWVATISSGGTYTYYPDSVKGRFTISRDNSKNTLYLQMNSLKAEDTAMYYCARHDFDYFPYWFAHWGQGTLVTVSS VL: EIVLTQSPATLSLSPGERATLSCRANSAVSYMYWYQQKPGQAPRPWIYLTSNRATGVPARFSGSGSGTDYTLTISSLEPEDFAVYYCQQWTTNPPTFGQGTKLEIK	2.2
9B3_9E5_8H3/CP08F05 (antibody, IgG4, V domains shown, IgG4 (S241P), kappa) VH: EVQLLESGGGLVQPGGSLRLSCAASGFTFNAHAISWVRQAPGKGLEWVATISSGGTYTYYPDSVKGRFTISRDNSKNTLYLQMNSLKAEDTAMYYCARHGFDYFPYWFAHWGQGTLVTVSS VL: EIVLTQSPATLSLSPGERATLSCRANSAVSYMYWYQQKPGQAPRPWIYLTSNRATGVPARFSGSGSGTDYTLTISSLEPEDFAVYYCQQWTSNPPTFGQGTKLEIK	2.4
9B3_9E5/CP08E05 (antibody, IgG4, V domains shown, IgG4 (S241P), kappa) VH: EVQLLESGGGLVQPGGSLRLSCAASGFTFNAHAISWVRQAPGKGLEWVATISSGGTYTYYPDSVKGRFTISRDNSKNTLYLQMNSLKAEDTAMYYCARHGFDYDAAWFAYWGQGTLVTVSS VL: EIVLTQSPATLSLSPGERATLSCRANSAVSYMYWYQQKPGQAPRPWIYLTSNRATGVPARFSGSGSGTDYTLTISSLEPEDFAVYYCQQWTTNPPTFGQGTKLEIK	8.3
9B3_9E5/Vκ8 S29A (antibody, IgG4, V domains shown, IgG4 (S241P), kappa) VH: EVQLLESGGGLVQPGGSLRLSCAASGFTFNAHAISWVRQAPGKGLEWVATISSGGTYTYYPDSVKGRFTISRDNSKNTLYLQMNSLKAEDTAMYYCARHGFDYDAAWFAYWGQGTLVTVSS VL: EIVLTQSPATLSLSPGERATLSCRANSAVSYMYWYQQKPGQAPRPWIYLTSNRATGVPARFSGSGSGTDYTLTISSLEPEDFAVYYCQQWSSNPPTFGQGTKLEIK	3.8
